Assay: chemical genetic growth profiling, strain panel (AID 1159580);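 further: tested at 20 µM; growth read once vehicle control cultures reached saturation at 30 °C; lower values mean less growth of the strain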
Conditions: S. cerevisiae deletion strains, growth OD, locus YDL185W, strain tfp1
The whole screen tested about 5,500 compounds, of which about 2,000 (36%) were called active. Roughly 18% stayed inconclusive and do not appear here. No stated cut-off is given here; in the data, active means normalized growth mostly below about 0.91 (no sharp cut-off); inconclusive means no clear call, values can overlap the other calls; inactive means mostly above about 0.92. The list shows a part of the results.
Log the outcome using a class from Yes (active), No (inactive)

Asked: Please indicate how the test categorized C[C@@H](CO)NC(=O)C1C=C2c3cccc4[nH]cc(c34)C[C@H]2N(C)C1 (stereo partly drawn) .
Given back: No

Asked: Please indicate how the test categorized C[C@H]1O[C@@H](O[C@H]2[C@@H](O)C[C@H](O[C@H]3[C@@H](O)C[C@H](O[C@H]4CC[C@]5(C)C6CC[C@]7(C)[C@@H](C8=CC(=O)OC8)CC[C@]7(O)C6CC[C@@H]5C4)O[C@@H]3C)O[C@@H]2C)C[C@H](O)[C@@H]1O (stereo partly drawn) .
Given back: No

Asked: What call does the record list for O=c1c(O)cc([C@H]2Oc3cc(O)cc(O)c3C[C@H]2O)cc2c([C@H]3Oc4cc(O)cc(O)c4C[C@H]3O)cc(O)c(O)c12 ?
Given back: No

Asked: Which outcome was assigned to CCOC(=O)C1=C(O)C(=O)N(Cc2ccccc2)C1 in this test?
Given back: No

Asked: Please indicate how the test categorized C[C@H]1O[C@@H](O[C@H]2[C@@H](O)C[C@H](O[C@H]3[C@@H](O)C[C@H](O[C@H]4CC[C@]5(C)C6C[C@@H](O)[C@]7(C)[C@@H](C8=CC(=O)OC8)CC[C@]7(O)C6CC[C@@H]5C4)O[C@@H]3C)O[C@@H]2C)C[C@H](O)[C@@H]1O (stereo partly drawn) .
Given back: No

Asked: Dear colleague, could you share the recorded outcome for O=c1c(O)cccc2c(C3Oc4cc(O)cc(O)c4CC3O)cc(O)c(O)c12 (stereo not drawn) when you have a moment?
Given back: Yes

Asked: Record request — test call for COc1c(O)cc2c(c1O)[C@H]1O[C@H](CO)[C@@H](O)[C@H](O)[C@@H]1OC2=O
Given back: No

Asked: # lookup: test call for COc1ccc(-c2cc(=O)c3c(O)cc(O)cc3o2)cc1O
Given back: No

Asked: Just curious, what result did CC(C)=CC1C(CO)C1(C)C (stereo not drawn) get here?
Given back: No

Asked: Can you look up the reported call for COc1cc(O)c2c(=O)cc(-c3ccc(O)cc3)oc2c1 for me?
Given back: No

Asked: Field: outcome | Entry: CCOC(=O)CC(SP(=S)(OC)OC)C(=O)OCC (stereo not drawn)
Given back: No

Asked: Which result was noted for this molecule in the test: C[C@@H]1O[C@@H](O[C@H]2CC[C@]3(C=O)C4CC[C@]5(C)[C@@H](C6=CC(=O)OC6)CC[C@]5(O)C4CC[C@]3(O)C2)[C@H](O)[C@H](O)[C@H]1O (stereo partly drawn)
Given back: No

Asked: Hi, sorry to bother you, what did the test record for Cc1c(OCC(F)(F)F)ccnc1CS(=O)c1nc2ccccc2[nH]1 (stereo not drawn) ?
Given back: No

Asked: Call for entry NCCCCN :
Given back: No

Asked: Hello, I am checking results. What call was entered for COC(=O)[C@H]1[C@H]2C[C@H]3c4[nH]c5cc(OC)ccc5c4CCN3C[C@H]2C[C@@H](OC(=O)c2cc(OC)c(OC)c(OC)c2)[C@@H]1OC ?
Given back: No

Asked: Given CN(C)CC[C@H](c1ccc(Cl)cc1)c1ccccn1 , state the outcome it received in this test.
Given back: No

Asked: Per the records of this test, what outcome belongs to O=C(O)c1ccccc1O ?
Given back: No

Asked: Tell me the assay call for COc1cc(O)c2c(=O)cc(-c3ccc(OC)c(-c4c(O)cc(O)c5c(=O)cc(-c6ccc(O)cc6)oc45)c3)oc2c1 please.
Given back: No

Asked: Which result was noted for this molecule in the test: COc1nc(NC(C)C)nc(NC(C)C)n1
Given back: No

Asked: Entry C[C@]12CCC3C(CC[C@]4(O)C[C@@H](O)CC[C@]34C=O)[C@@]1(O)CCC2C1=CC(=O)OC1 (stereo partly drawn) : call = ?
Given back: No

Asked: Please let me know the test result on file for CO[C@H]1[C@H](O)[C@@H](O[C@H]2CC[C@]3(C=O)C4CC[C@]5(C)[C@@H](C6=CC(=O)OC6)CC[C@]5(O)C4CC[C@@H]3C2)O[C@@H](C)[C@@H]1O (stereo partly drawn) .
Given back: No

Asked: Status in this test for CSCCC(N)C(=O)NC(CC(C)C)C(=O)NC(Cc1ccccc1)C(=O)O (stereo not drawn) ?
Given back: No

Asked: Just curious, what result did NC(=O)c1ccc([N+](=O)[O-])cc1Cl get here?
Given back: No

Asked: Record lookup: outcome of this test for CC1(C)Oc2ccc3ccc(=O)oc3c2CC1O (stereo not drawn) ?
Given back: No

Asked: Assay result, entry Cc1ccccc1N1C(=O)c2cc(S(N)(=O)=O)c(Cl)cc2NC1C (stereo not drawn) — outcome?
Given back: No

Asked: Dear all, I need the recorded test outcome for CC12CCC3C(CCC4(O)CC(O)CCC34/C=N/NC(N)=O)C1(O)CCC2C1=CC(=O)OC1 (stereo not drawn) , thank you.
Given back: No

Asked: Which outcome was assigned to CC(C)Nc1nc(Cl)nc(NC(C)C)n1 in this test?
Given back: No

Asked: Any idea what this test logged for CC[C@H]1CN2CCC1C[C@@H]2[C@@H](O)c1ccnc2ccc(OC)cc12 (stereo partly drawn) ?
Given back: No

Asked: Call for entry NC[C@@H]1O[C@H](O[C@@H]2[C@@H](CO)OC(O[C@@H]3[C@@H](O)[C@H](N)C[C@H](N)[C@H]3O[C@H]3O[C@H](CO)[C@@H](O)[C@H](O)[C@H]3N)[C@@H]2O)[C@H](N)[C@@H](O)[C@@H]1O (stereo partly drawn) :
Given back: No

Asked: Please share the test call associated with CC(=O)[C@@]1(O)CCC2C3C=C(Cl)C4=CC(=O)[C@@H]5CC5[C@]4(C)C3CC[C@@]21C (stereo partly drawn) .
Given back: No

Asked: Hi, do you know how CC(=O)O[C@@H]1c2c(ccc3ccc(=O)oc23)OC(C)(C)[C@@H]1OC(=O)CC(C)C came out in this test?
Given back: No

Asked: Short answer needed: outcome of this test for COc1cccc2c1CCC1=CC(=O)CC[C@@]12C ?
Given back: No

Asked: Tell me the recorded outcome of this test for COc1ccc(-c2cc(=O)c3c(O)cc(O)cc3o2)cc1 .
Given back: No

Asked: So what was the verdict on COc1ccccc1N1CCN(CCCNc2cc(=O)n(C)c(=O)n2C)CC1 in this test?
Given back: No

Asked: GET /call?item= C/C=C(\C)C(=O)O[C@@H]1c2c(ccc3ccc(=O)oc23)OC(C)(C)[C@@H]1OC(C)=O returns the recorded outcome of this test.
Given back: No

Asked: Call for entry O=C(Oc1ccccc1C(=O)O)c1ccccc1O :
Given back: No

Asked: Can you look up the reported call for CSc1nc(NC(C)C)nc(NC(C)C)n1 for me?
Given back: No

Asked: Hey, what did the test say about O=C(/C=C(\O)c1ccccc1)c1ccccc1O ?
Given back: Yes
